Assign pEC50 to each entry below.
test system: Bovine viral diarrhea virus 1; assay: Antiviral activity against BVDV1 Nose infected in MDBK cells assessed as inhibition of virus replication-induced cell destruction; format: functional, organism-based; details: Bovine viral diarrhea virus isolates and strains
One number for each entry, as −log10 of the molar value.

Consider the worked cases shown below.
query.smiles: CCC(CC)(c1ccc(O)cc1)c1ccc(O)cc1
system.tested: Bovine viral diarrhea virus 1
measure: pEC50
observed: 5.00
--
query.smiles: CCC(CC)(c1ccc(OCC(=O)C(C)(C)C)c(C)c1)c1ccc(N(CC(=O)C(C)(C)C)Cc2ccccc2)c(C)c1
system.tested: Bovine viral diarrhea virus 1
measure: pEC50
observed: 4.55
--
query.smiles: Cc1cc([Si](C)(C)c2ccc(OCC(=O)C(C)(C)C)c(C)c2)ccc1OCC(=O)C(C)(C)C
system.tested: Bovine viral diarrhea virus 1
measure: pEC50
observed: 4.89
--
query.smiles: CCN(CC)C(=O)Oc1ccc(C(CC)(CC)c2ccc(NC(C)=O)c(C)c2)cc1C
system.tested: Bovine viral diarrhea virus 1
measure: pEC50
observed: 5.00

Next item in the queue.
# input Give pEC50 for `Cc1cc(C2(c3ccc(OCC(=O)C(C)(C)C)c(C)c3)CCC2)ccc1OCC(=O)C(C)(C)C`
# output 5.20
